Reference source: ChEMBL document CHEMBL3988442

molecular target: AMP-activated protein kinase, AMPK (Homo sapiens) (UniProt P54646+O43741+P54619+Q9UGJ0+Q9Y478+Q13131+Q9UGI9); assay: AMP-dependent Kinase enzyme assay. An in vitro enzyme assay that detects ADP turnover that is directly proportional to AMPK activity. This uses naive AMPK that is activated during the assay with MK-8722; assay type: functional; set-up: scale not given: direction of the effect not stated beside the values; details: 30 µM
Field: Percent Effect. Provide a value for each of the molecules that follow.
Give just the number in %; leave the unit off.

Exercise: Can you share its Percent Effect? I mean this molecule: CN(CCNC(=O)Nc1nccs1)Cc1ccc(F)cc1
Key: -0.57

Exercise: // same read-out, input: CNC(=O)c1cccnc1NCc1ccc(-n2cccn2)cc1
Key: -0.487

Exercise: // same read-out, input: NC(=O)NC1CCN(Cc2ccccc2OCC(F)(F)F)CC1
Key: -5.97

Exercise: // same read-out, input: Nc1ccc(C(=O)N2CCC(Oc3cccc(C(F)(F)F)c3)CC2)cn1
Key: 6.7

Exercise: // same read-out, input: CCn1cnnc1CCNC(=O)c1ccc(F)c(Br)c1
Key: -5.58
